# Read-out: HMG-CoA synthase (HMGCS2), HMGCS2 (gene 3158)
# assay.details: CLD_HMGCS2_48hr: CellzDirect (CLD) Gene Expression Assay for HMG-CoA synthase (HMGCS2) at 48 hours (AID 2283711)
Records with an inconclusive call do not appear. The source made the active and inactive calls. The calls were made as follows: active = hit-call score of the fitted dose curve at least 0.9, where 1 is the maximum; inconclusive = response in the unintended direction; inactive = score below 0.9.
recorded.metric: AC50

compound	AC50
CCCCOC(=O)C(C)Oc1ccc(Oc2ccc(C(F)(F)F)cn2)cc1 (configuration not stated)	263 nM (active)
c1ccc(Nc2ccccc2)cc1	inactive
COC(=O)c1cccc(C)c1S(=O)(=O)NC(=O)Nc1nc(OCC(F)(F)F)nc(N(C)C)n1	inactive
CCOC(=O)C(C)Oc1ccc(Oc2nc3ccc(Cl)cc3o2)cc1 (configuration not stated)	inactive
CCCCC(CC)COC(=O)c1ccccc1C(=O)O (configuration not stated)	inactive
CCCN(CCC)C(=O)SCC	inactive
O=C(O)C1(C(=O)Nc2ccc(Cl)cc2Cl)CC1	inactive
Cc1nn(C)c(Oc2ccccc2)c1C=NOCc1ccc(C(=O)OC(C)(C)C)cc1	inactive

# return AC50 for each item in the list
1. CCC(C)OC(=O)N1CCCCC1CCO (configuration not stated)
2. CC(C)(C)[C@@H](O)[C@@H](Cc1ccc(Cl)cc1)n1cncn1

Output:
1: inactive; 2: inactive

# return AC50 for each item in the list
1. COc1nc(C)nc(NC(=O)NS(=O)(=O)c2ccccc2OCCCl)n1
2. COc1c(Cl)ccc(Cl)c1C(=O)O

Output:
1. inactive
2. 7.07 nM (active)
